Please go through the items and note down their K ass.
targetOrSystem: UniProt:P00747
Sequence (P00747 whole entry, looked up): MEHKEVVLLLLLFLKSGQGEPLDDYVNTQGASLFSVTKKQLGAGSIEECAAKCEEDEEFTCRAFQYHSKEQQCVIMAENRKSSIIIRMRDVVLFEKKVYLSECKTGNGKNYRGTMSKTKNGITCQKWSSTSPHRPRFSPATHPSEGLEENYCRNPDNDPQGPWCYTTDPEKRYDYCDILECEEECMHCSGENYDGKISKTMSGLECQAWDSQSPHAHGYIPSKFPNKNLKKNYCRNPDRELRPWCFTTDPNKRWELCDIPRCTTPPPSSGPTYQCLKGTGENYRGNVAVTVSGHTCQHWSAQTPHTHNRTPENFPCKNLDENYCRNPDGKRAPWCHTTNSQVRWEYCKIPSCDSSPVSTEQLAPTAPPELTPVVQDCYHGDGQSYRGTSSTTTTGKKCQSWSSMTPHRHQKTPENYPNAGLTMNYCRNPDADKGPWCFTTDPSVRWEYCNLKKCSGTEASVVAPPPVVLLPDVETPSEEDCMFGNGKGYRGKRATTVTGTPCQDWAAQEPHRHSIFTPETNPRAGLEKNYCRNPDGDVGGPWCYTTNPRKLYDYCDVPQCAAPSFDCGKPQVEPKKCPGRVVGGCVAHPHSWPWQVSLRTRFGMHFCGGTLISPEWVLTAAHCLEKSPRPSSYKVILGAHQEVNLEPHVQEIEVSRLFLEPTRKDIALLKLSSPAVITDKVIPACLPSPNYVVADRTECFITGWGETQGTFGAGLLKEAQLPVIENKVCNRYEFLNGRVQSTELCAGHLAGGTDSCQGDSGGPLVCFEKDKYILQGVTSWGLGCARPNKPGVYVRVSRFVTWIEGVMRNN
assayDetails: Tested for inhibition of plasmin

compound COc1ccc(C(=O)Nc2ccccc2NC(=O)c2cccc(C(=N)N)c2)cc1 , K ass observed: 20000 l M-1

compound CC(C)c1ccc(C(=O)Nc2cc(OCC(=O)O)ccc2NC(=O)c2cccc(C(=N)N)c2)cc1 , K ass observed: 39000 l M-1

compound CC(C)(C)c1ccc(C(=O)Nc2cc(C(=O)O)ccc2NC(=O)c2cccc(C(=N)N)c2)cc1 , K ass observed: 73000 l M-1

compound CC(C)(C)c1ccc(C(=O)Nc2ccccc2NC(=O)c2cccc(C(=N)N)c2)cc1 , K ass observed: 6000 l M-1

###

Please go through the items and note down their Ratio.
targetOrSystem: Coagulation factor X (Homo sapiens) (UniProt P00742)
Sequence (P00742 41-179 limits assumed): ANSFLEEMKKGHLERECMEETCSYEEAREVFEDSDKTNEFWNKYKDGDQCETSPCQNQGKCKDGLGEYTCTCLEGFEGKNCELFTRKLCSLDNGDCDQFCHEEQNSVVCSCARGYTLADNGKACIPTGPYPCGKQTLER
Sequence (P00742 235-488 limits assumed): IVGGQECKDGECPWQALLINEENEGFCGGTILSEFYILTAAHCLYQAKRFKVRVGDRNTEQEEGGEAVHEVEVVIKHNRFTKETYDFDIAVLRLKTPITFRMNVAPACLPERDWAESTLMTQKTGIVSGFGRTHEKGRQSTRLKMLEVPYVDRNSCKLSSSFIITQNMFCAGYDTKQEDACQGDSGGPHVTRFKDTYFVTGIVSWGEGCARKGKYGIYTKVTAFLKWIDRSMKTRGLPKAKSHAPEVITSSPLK
assayDetails: Selectivity as the ratio of Kass value towards fXa to that of aPC.
Reply briefly: the number, and no unit.

molecule CC(C)(C)c1ccc(C(=O)Nc2ccccc2NC(=O)c2cccc(C(=N)N)c2)cc1 , Ratio observed: 13000

molecule CC(C)c1ccc(C(=O)Nc2cc(OCC(=O)O)ccc2NC(=O)c2cccc(C(=N)N)c2)cc1 , Ratio observed: 24000

molecule COc1ccc(C(=O)Nc2ccccc2NC(=O)c2cccc(C(=N)N)c2)cc1 , Ratio observed: 1000

molecule CC(C)(C)c1ccc(C(=O)Nc2cc(C(=O)O)ccc2NC(=O)c2cccc(C(=N)N)c2)cc1 , Ratio observed: 36000

###

assayDetails: Selectivity as the ratio of Kass value towards fXa to that of trypsin.
endpoint: Ratio
Reply briefly: the number, and no unit.

compound COc1ccc(C(=O)Nc2ccccc2NC(=O)c2cccc(C(=N)N)c2)cc1 , Ratio observed: 25

compound CC(C)c1ccc(C(=O)Nc2cc(OCC(=O)O)ccc2NC(=O)c2cccc(C(=N)N)c2)cc1 , Ratio observed: 140

compound CC(C)(C)c1ccc(C(=O)Nc2ccccc2NC(=O)c2cccc(C(=N)N)c2)cc1 , Ratio observed: 740

compound CC(C)(C)c1ccc(C(=O)Nc2cc(C(=O)O)ccc2NC(=O)c2cccc(C(=N)N)c2)cc1 , Ratio observed: 390

###

Test system: Plasminogen and coagulation factor X (Homo sapiens)
assayDetails: Selectivity as the ratio of Kass value towards fXa to that of plasmin.
Please go through the items and note down their Ratio.
Reply briefly: the number, and no unit.

// returns Ratio for CC(C)(C)c1ccc(C(=O)Nc2cc(C(=O)O)ccc2NC(=O)c2cccc(C(=N)N)c2)cc1 with Plasminogen and coagulation factor X (Homo sapiens); value = 6400

// returns Ratio for COc1ccc(C(=O)Nc2ccccc2NC(=O)c2cccc(C(=N)N)c2)cc1 with Plasminogen and coagulation factor X (Homo sapiens); value = 750

// returns Ratio for CC(C)c1ccc(C(=O)Nc2cc(OCC(=O)O)ccc2NC(=O)c2cccc(C(=N)N)c2)cc1 with Plasminogen and coagulation factor X (Homo sapiens); value = 8700

// returns Ratio for CC(C)(C)c1ccc(C(=O)Nc2ccccc2NC(=O)c2cccc(C(=N)N)c2)cc1 with Plasminogen and coagulation factor X (Homo sapiens); value = 42000

###

Please go through the items and note down their K ass.
targetOrSystem: Trypsin II (Bos taurus) (UniProt Q29463)
Sequence (Q29463 whole entry): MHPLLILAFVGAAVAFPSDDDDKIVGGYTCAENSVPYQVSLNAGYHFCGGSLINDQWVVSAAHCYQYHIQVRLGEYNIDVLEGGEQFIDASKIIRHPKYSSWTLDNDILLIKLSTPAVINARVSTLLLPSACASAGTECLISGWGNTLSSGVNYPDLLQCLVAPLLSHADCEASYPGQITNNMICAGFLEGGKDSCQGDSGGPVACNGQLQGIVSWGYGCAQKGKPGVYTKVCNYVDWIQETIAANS
assayDetails: Tested for inhibition of trypsin

// returns K ass for CC(C)(C)c1ccc(C(=O)Nc2cc(C(=O)O)ccc2NC(=O)c2cccc(C(=N)N)c2)cc1 with Trypsin II (Bos taurus) (UniProt Q29463); value = 1.2e+07 l M-1

// returns K ass for CC(C)(C)c1ccc(C(=O)Nc2ccccc2NC(=O)c2cccc(C(=N)N)c2)cc1 with Trypsin II (Bos taurus) (UniProt Q29463); value = 340000 l M-1

// returns K ass for CC(C)c1ccc(C(=O)Nc2cc(OCC(=O)O)ccc2NC(=O)c2cccc(C(=N)N)c2)cc1 with Trypsin II (Bos taurus) (UniProt Q29463); value = 2.5e+06 l M-1

// returns K ass for COc1ccc(C(=O)Nc2ccccc2NC(=O)c2cccc(C(=N)N)c2)cc1 with Trypsin II (Bos taurus) (UniProt Q29463); value = 600000 l M-1

Source: ChEMBL document CHEMBL1132963
